# TARGET_SYSTEM: UniProt:P43405
# ASSAY_NAME: Inhibition of SYK in human B cells assessed as suppression of anti-IgM-induced CD69 surface expression preincubated for 30 mins followed by anti-IgM addition measured after 3.5 hrs by flow cytometric analysis
# Assay type: cell-based
pIC50: −log10 of the molar value.
VALUE_KIND: pIC50

COMPOUND_STRUCTURE_STRING: CN1CCNC[C@H]1COc1nc(-c2cnn(C)c2)cc2nccnc12
TARGET_SYSTEM: UniProt:P43405
RELATION_OPERATOR: =
MEASUREMENT: 7.00

COMPOUND_STRUCTURE_STRING: CN(C)c1ccc(-c2cc3ncccc3c(NC[C@H]3CCCNC3)n2)cn1
TARGET_SYSTEM: UniProt:P43405
RELATION_OPERATOR: =
MEASUREMENT: 6.10

COMPOUND_STRUCTURE_STRING: Cc1ccc(-c2cc3nccnc3c(NC[C@H]3CCCNC3)n2)cc1
TARGET_SYSTEM: UniProt:P43405
RELATION_OPERATOR: =
MEASUREMENT: 6.10

COMPOUND_STRUCTURE_STRING: CN(C)c1ccc(-c2cc3nccnc3c(NC[C@H]3CNCCO3)n2)cn1
TARGET_SYSTEM: UniProt:P43405
RELATION_OPERATOR: =
MEASUREMENT: 5.80

COMPOUND_STRUCTURE_STRING: Cn1cc(-c2cc3nccnc3c(OC[C@H]3CCCNC3)n2)cn1
TARGET_SYSTEM: UniProt:P43405
RELATION_OPERATOR: =
MEASUREMENT: 6.70

COMPOUND_STRUCTURE_STRING: Cc1ccc(-c2cc3nccnc3c(NC[C@H]3CCCNC3)n2)o1
TARGET_SYSTEM: UniProt:P43405
RELATION_OPERATOR: =
MEASUREMENT: 6.10

COMPOUND_STRUCTURE_STRING: CN(C)c1ccc(-c2cc3nccnc3c(NCC(F)(F)F)n2)cn1
TARGET_SYSTEM: UniProt:P43405
RELATION_OPERATOR: <
MEASUREMENT: 5.00

COMPOUND_STRUCTURE_STRING: Cc1ccc(-c2cc3nccnc3c(NC[C@H]3CCCNC3)n2)s1
TARGET_SYSTEM: UniProt:P43405
RELATION_OPERATOR: =
MEASUREMENT: 6.00

COMPOUND_STRUCTURE_STRING: c1cnc2c(NC[C@H]3CCCNC3)nc(-c3cn[nH]c3)cc2n1
TARGET_SYSTEM: UniProt:P43405
RELATION_OPERATOR: =
MEASUREMENT: 6.50

COMPOUND_STRUCTURE_STRING: CN(C)c1ccc(-c2cc(NC[C@H]3CCCNC3)c3cccnc3c2)cn1
TARGET_SYSTEM: UniProt:P43405
RELATION_OPERATOR: =
MEASUREMENT: 6.30

COMPOUND_STRUCTURE_STRING: CN(C)c1ccc(-c2cc3nccnc3c(NCCC(N)=O)n2)cn1
TARGET_SYSTEM: UniProt:P43405
RELATION_OPERATOR: =
MEASUREMENT: 5.40

====

# TARGET_SYSTEM: Tyrosine-protein kinase SYK (Homo sapiens)
# ASSAY_NAME: Inhibition of N-terminal 6His-tagged full length human recombinant SYK expressed in baculovirus using Biotin-AAAEEIYGEI as substrate after 60 mins by TR-FRET assay
Listing of recorded log10 of IC50 by entry.
VALUE_KIND: log10 of IC50 (log10 of the value in nM)

COMPOUND: CN(C)c1ccc(-c2cc3nccnc3c(NC[C@@H]3CNCCN3C)n2)cn1
log10 of IC50: 1.70
--
COMPOUND: Cc1ccc(-c2cc3nccnc3c(NC[C@H]3CCCNC3)n2)cc1
log10 of IC50: 1.40
--
COMPOUND: c1cnc2c(NC[C@H]3CCCNC3)nc(-c3cn[nH]c3)cc2n1
log10 of IC50: 1.70
--
COMPOUND: CN1CCNC[C@H]1CNc1nc(-c2cnn(C)c2)cc2nccnc12
log10 of IC50: 2.00
--
COMPOUND: CN(C)c1ccc(-c2cc3nccnc3c(NC[C@H]3CCCNC3)n2)cn1
log10 of IC50: 1.20
--
COMPOUND: O=C1CN(c2cc3nccnc3c(NC[C@H]3CCCNC3)n2)CCN1
log10 of IC50: 3.80
--
COMPOUND: CN(C)c1ccc(-c2cc3nccnc3c(NCCC(N)=O)n2)cn1
log10 of IC50: 2.20
--
COMPOUND: CN(C)c1ccc(-c2cc3nccnc3c(CCC3CCCNC3)n2)cn1 (racemic)
log10 of IC50: 2.40
--
COMPOUND: CN(C)c1ccc(-c2cc3nccnc3c(NC[C@@H]3CNCCO3)n2)cn1
log10 of IC50: 1.40
--
COMPOUND: Cc1ccc(-c2cc3nccnc3c(NC[C@H]3CCCNC3)n2)s1
log10 of IC50: 1.30
--
COMPOUND: Cc1ccc(-c2cc3ncn(C)c(=O)c3c(NC[C@H]3CCCNC3)n2)cc1
log10 of IC50: 1.90
--
COMPOUND: CN(C)c1ccc(-c2cc(NC[C@H]3CCCNC3)c3cccnc3c2)cn1
log10 of IC50: 0.80
--
COMPOUND: CN(C)c1ccc(-c2cc3nccnc3c(NC[C@H]3CNCCC3(F)F)n2)cn1
log10 of IC50: 1.50
--
COMPOUND: Cn1cc(-c2cc3nccnc3c(OC[C@H]3CCCNC3)n2)cn1
log10 of IC50: 1.60
--
COMPOUND: CN(C)c1ccc(-c2cc3nccnc3c(NCCCCO)n2)cn1
log10 of IC50: 2.30
--
COMPOUND: CN(C)c1ccc(-c2cc3nccnc3c(NCC(F)(F)F)n2)cn1
log10 of IC50: 2.10
--
COMPOUND: CN(C)c1ccc(-c2cc3nccnc3c(NC[C@H]3CNCCN3C)n2)cn1
log10 of IC50: 1.90
--
COMPOUND: Cn1cc(-c2cc3nccnc3c(NC[C@H]3CCCNC3)n2)cn1
log10 of IC50: 1.50
--
COMPOUND: Cn1cc(-c2cc3nccnc3c(NCC3CNCC(F)(F)C3)n2)cn1 (racemic)
log10 of IC50: 2.50
--
COMPOUND: CN(C)c1ccc(-c2cc3nccnc3c(NCC3CNCC(F)(F)C3)n2)cn1 (racemic)
log10 of IC50: 2.00
--
COMPOUND: Cn1cc(-c2cc3nccnc3c(OCC3CNCC(F)(F)C3)n2)cn1 (racemic)
log10 of IC50: 2.20
--
COMPOUND: Cn1cc(-c2cc3nccnc3c(NC[C@@H]3CNCCC3(F)F)n2)cn1
log10 of IC50: 0.60
--
COMPOUND: CN(C)c1ccc(-c2cc3nccnc3c(OC[C@@H]3CCCNC3)n2)cn1
log10 of IC50: 1.40
--
COMPOUND: CN(C)c1ccc(-c2cc3ncccc3c(NC[C@H]3CCCNC3)n2)cn1
log10 of IC50: 0.90
--
COMPOUND: Cc1ccc(-c2cc3ncccc3c(NC[C@H]3CCCNC3)n2)cc1
log10 of IC50: 1.30
--
COMPOUND: CN(C)c1ccc(-c2cc3nccnc3c(NC[C@@H]3CNCCC3(F)F)n2)cn1
log10 of IC50: 0.40

====

# ASSAY_NAME: Half life in rat at 3 mg/kg, po or 1 mg/kg, iv
# Format: ADME, organism-based
# ASSAY_CONTEXT: in vivo
VALUE_KIND: half-life (h)

COMPOUND_STRUCTURE_STRING: Cn1cc(-c2cc3nccnc3c(NC[C@@H]3CNCCO3)n2)cn1
VALUE_KIND: half-life
MEASUREMENT: 1.7

====

# ASSAY_NAME: Lipophilicity, log D of the compound by chromatographic method
# Assay type: physicochemical

MOLECULE: CN(C)c1ccc(-c2cc3nccnc3c(CCC3CCCNC3)n2)cn1 (racemic)
chromatographic logD: 2.4
//
MOLECULE: CN(C)c1ccc(-c2cc3nccnc3c(NCC(F)(F)F)n2)cn1
chromatographic logD: 5.7
//
MOLECULE: O=C1CN(c2cc3nccnc3c(NC[C@H]3CCCNC3)n2)CCN1
chromatographic logD: 0.6
//
MOLECULE: CN(C)c1ccc(-c2cc3nccnc3c(NCC3CNCC(F)(F)C3)n2)cn1 (racemic)
chromatographic logD: 4.2

====

Listing of recorded pIC50 by entry.
# TARGET_SYSTEM: Tyrosine-protein kinase SYK (Homo sapiens)
# ASSAY_NAME: Inhibition of N-terminal 6His-tagged full length human recombinant SYK expressed in baculovirus using Biotin-AAAEEIYGEI as substrate after 60 mins by TR-FRET assay
pIC50: −log10 of the molar value.
VALUE_KIND: pIC50

COMPOUND_STRUCTURE_STRING: Cc1ccc(-c2cc3nc[nH]c(=O)c3c(NC[C@H]3CCCNC3)n2)cc1
MEASUREMENT: 6.80

COMPOUND_STRUCTURE_STRING: CN(C)c1ccc(-c2cc3nccnc3c(NC[C@H]3CNCCO3)n2)cn1
MEASUREMENT: 6.70

COMPOUND_STRUCTURE_STRING: Cn1cc(-c2cc3nccnc3c(NC[C@@H]3CNCCO3)n2)cn1
MEASUREMENT: 7.20

COMPOUND_STRUCTURE_STRING: Cc1ccc(-c2cc3ncncc3c(NC[C@H]3CCCNC3)n2)cc1
MEASUREMENT: 6.70

COMPOUND_STRUCTURE_STRING: CN(C)c1ccc(-c2cc3nccnc3c(OC[C@H]3CCCNC3)n2)cn1
MEASUREMENT: 8.40
